# study_target: HIV-1 protease (Human immunodeficiency virus type 1 group M subtype B)
# Construct: Purified HIV-1 protease was obtained as described above; made in house; host or cells: E. coli K12 L507/pHP10D (NRRL B-18560)
# experiment: biochemical
# Assay type: biochemical
# condition_context: read-out: Fluorescence Assay IC50 (converted)
Classify: MET when IC50 is strictly less than 40 nM; NOT MET when IC50 is not.

compound | class_label
CC(=O)N[C@H](CC(=O)OCc1ccccc1)C(=O)N[C@@H](Cc1ccccc1)[C@H](O)Cc1ccccc1C(=O)NC(C)(C)C | NOT MET
CC(C)(C)NC(=O)c1ccccc1C[C@@H](O)[C@H](Cc1ccccc1)NC(=O)[C@H](N)CSc1ccc2ccccc2c1 [Example 15B] | NOT MET
CC(C)(C)NC(=O)c1ccccc1C[C@@H](O)[C@H](Cc1ccccc1)NC(=O)[C@H](CC(N)=O)NS(=O)(=O)c1ccc2ccccc2c1 | MET
CC(C)(C)NC(=O)c1ccccc1C[C@@H](O)[C@H](Cc1ccccc1)NC(=O)[C@@H](CSc1ccc2ccccc2n1)NS(C)(=O)=O [Example 23C] | MET
CCCC(=O)N[C@H](CC(=O)OCc1ccccc1)C(=O)N[C@@H](Cc1ccccc1)[C@H](O)Cc1ccccc1C(=O)NC(C)(C)C | NOT MET
CC(C)(C)NC(=O)c1ccccc1C[C@@H](O)[C@H](Cc1ccccc1)NC(=O)[C@@H](COCc1ccccc1)NS(C)(=O)=O | NOT MET
CC(C)(C)NC(=O)c1ccccc1C[C@@H](O)[C@H](Cc1ccccc1)NC(=O)[C@H](N)CSc1ccc(F)cc1 [Example 37B] | NOT MET
CC(C)(C)NC(=O)c1ccccc1C[C@@H](O)[C@H](Cc1ccccc1)NC(=O)[C@@H](C[S+]([O-])c1ccc(F)cc1)NS(C)(=O)=O (stereo partly shown) [Example 37D] | MET
CC(C)(C)NC(=O)c1ccccc1C[C@@H](O)[C@H](Cc1ccccc1)NC(=O)[C@@H](CS(=O)(=O)c1ccc2ccccc2n1)NS(C)(=O)=O [Example 23D] | MET
CCC(=O)N[C@H](CC(=O)OCc1ccccc1)C(=O)N[C@@H](Cc1ccccc1)[C@H](O)Cc1ccccc1C(=O)NC(C)(C)C | MET
CC(=O)N[C@H](COCc1ccccc1)C(=O)N[C@@H](Cc1ccccc1)[C@H](O)Cc1ccccc1C(=O)NC(C)(C)C [Example 13C] | NOT MET
CN(C)S(=O)(=O)N[C@H](CC(=O)OCc1ccccc1)C(=O)N[C@@H](Cc1ccccc1)[C@H](O)Cc1ccccc1C(=O)NC(C)(C)C | MET
CC(=O)N[C@H](CSc1ccc2ccccc2c1)C(=O)N[C@@H](Cc1ccccc1)[C@H](O)Cc1ccccc1C(=O)NC(C)(C)C [Example 16A] | MET
